Test system: MDA-1986 cells
Assay: Cell growth inhibition (resazurin blue), MDA-1986
Format: cell-based, human
Conditions: 72 hours
pIC50: −log10 of the molar value.

>  <COMPOUND>
CC1CN([N+]([O-])=NOc2ccc([N+](=O)[O-])cc2[N+](=O)[O-])CCN1CCO (stereo not drawn)

>  <pIC50>
4.24

$$$$
>  <COMPOUND>
O=[N+]([O-])c1ccc(ON=[N+]([O-])N2CCN(CCOCCO)CC2)c([N+](=O)[O-])c1

>  <pIC50>
4.48

$$$$
>  <COMPOUND>
CCOC(=O)N1CCN(/[N+]([O-])=N/Oc2ccc([N+](=O)[O-])cc2[N+](=O)[O-])CC1

>  <pIC50>
4.80

$$$$

====

System: MCF-7 cells
Experiment: Cell growth inhibition (resazurin blue), MCF-7
Type: cell-based, human
Details: 72 hours after drug addition
Procedure: Plates were seeded with 3,000 cells/well in 100 μL of media (12 replicates/sample). Drug or conjugate solutions were applied after 24 hours. […] The in vitro anti-proliferative activities of cisplatin, NO-donating prodrug, and their star polymer-based conjugates, including acid-Pt, acid-NO, and combinational acid-Pt/acid-NO were evaluated in cell culture using a human breast cancer cell line, MCF-7. […] The acid-Pt appeared to be less cytotoxic than cisplatin in the cells. […]

>  <SMILES_STRING>
O=[N+]([O-])c1ccc(ON=[N+]([O-])N2CCN(CCOCCO)CC2)c([N+](=O)[O-])c1

>  <IC50>
48 µM

$$$$
